Source listed as PubChem BioAssay AID504374.

# Tested system: Runt-related transcription factor 1 (Homo sapiens) + Core-binding factor subunit beta (Homo sapiens) (UniProt Q01196+Q13951)
# Sequence (Q01196 whole entry, looked up): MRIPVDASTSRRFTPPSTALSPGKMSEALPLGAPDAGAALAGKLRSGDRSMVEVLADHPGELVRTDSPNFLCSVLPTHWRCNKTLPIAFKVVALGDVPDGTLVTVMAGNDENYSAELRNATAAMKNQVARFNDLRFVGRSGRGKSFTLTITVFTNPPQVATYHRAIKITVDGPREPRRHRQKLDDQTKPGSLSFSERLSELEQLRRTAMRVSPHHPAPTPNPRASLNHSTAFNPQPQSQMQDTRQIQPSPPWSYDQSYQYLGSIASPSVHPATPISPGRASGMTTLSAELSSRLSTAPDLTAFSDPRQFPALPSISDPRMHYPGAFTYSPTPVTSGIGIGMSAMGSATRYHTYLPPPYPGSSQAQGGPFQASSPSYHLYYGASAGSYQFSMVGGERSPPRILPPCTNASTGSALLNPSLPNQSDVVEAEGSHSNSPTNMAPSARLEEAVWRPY
# Sequence (Q13951 whole entry, looked up): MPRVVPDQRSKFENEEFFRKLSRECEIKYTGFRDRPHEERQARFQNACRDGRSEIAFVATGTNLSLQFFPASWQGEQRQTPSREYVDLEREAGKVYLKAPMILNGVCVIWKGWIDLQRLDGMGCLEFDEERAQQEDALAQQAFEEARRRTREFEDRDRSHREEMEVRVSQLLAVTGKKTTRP
# Protocol notes: qHTS Assay for Compounds Blocking the Interaction Between CBF-beta and RUNX1 for the Treatment of Acute Myeloid Leukemia: Hit Validation; also: nearly all actives have a fitted effect of over 60% in size
# Particulars: AlphaScreen CBFb-His/RUNX1-biotin binding; series mostly up to 59.8 µM
# Source text: NIH Chemical Genomics Center [NCGC] NIH Molecular Libraries Probe Production centers Network [MLPCN] Assay Submitter (PI): Paul Liu Core Binding Factor (CBF) abnormalities are associated with 20-25% of all acute myeloid leukemias (AML), of which 5-10% are further sub classified as acute myelomonocytic leukemia with eosinophilia, also known as M4Eo in the FAB classification scheme. […] (6) Detection, Excitation=365 nm Emission=440 nm, Envision reader in AlphaScreenTM mode […]
Screen size: about 1,500 compounds; about 100 (6.7%) were called active. Another 7% or so got no clear call; they are omitted. Calls follow the shape of the dose curve; as a rule, active = well fitted inhibition curve with a large enough effect; inconclusive = small, poorly fitted or top-dose-only effect, or effect the other way; inactive = flat fitted curve, though single readings scatter. This is one part of a sample in which actives are shown more often than they occur.
Entry note: the call must match one of 1.0 = active, 0.0 = inactive

[[record]]
molecule = "CCCCc1ccc(C(=O)O)nc1"
qualitative_label = 1.0

[[record]]
molecule = "O=C(O)COc1ccccc1/C=C1\\C(=O)NC(=O)N(CCC2=CCCCC2)C1=O"
qualitative_label = 0.0

[[record]]
molecule = "CC(C)(C)n1cc(C(=O)c2ccccc2)cc1-c1ccccc1"
qualitative_label = 0.0

[[record]]
molecule = "COc1cc(CN=Cc2c(O)n(C(C)(C)C)c(=O)[nH]c2=O)cc(OC)c1"
qualitative_label = 0.0

[[record]]
molecule = "CC(C)[C@H]1C(=O)N2CCC[C@H]2[C@]2(O)O[C@](NC(=O)[C@@H]3C=C4c5cccc6[nH]cc(c56)C[C@H]4N(C)C3)(C(C)C)C(=O)N12"
qualitative_label = 1.0


Req: Outcome? C[C@H]1CC[C@H]2NCCN[C@H]2C1
Resp: 0.0

Req: Test call, this molecule: CCCCn1c(O)c(/C=C2/C=CC=N2)c(=O)[nH]c1=O
Resp: 0.0

Req: Outcome? CCCCCCn1c(O)c(/C=N/N2CCCCCC2)c(=O)[nH]c1=O
Resp: 0.0

Req: Test call for this molecule, please: Cc1nc(SCc2c(Cl)cccc2Cl)nc(OC(=O)N(C)C)c1C
Resp: 0.0

Req: Name the outcome recorded for Cc1cc(OC(=O)N(C)C)nc(-c2ccc(C)c(Cl)c2)n1 in the assay.
Resp: 0.0

Req: Look up the recorded call for CCC(=NCc1cc(OC)cc(OC)c1)c1c(O)n(C2CCCCC2)c(=O)[nH]c1=O in this test.
Resp: 0.0

Req: Would you mind telling me which call this test gave Cc1cc(C(=O)Nc2ccccc2)nn1C(C)(C)C ?
Resp: 0.0

Req: For this molecule, state the assay outcome: CCCCn1c(O)c(C(CC)=NCCCn2ccnc2)c(=O)[nH]c1=O
Resp: 0.0

Req: Recorded test call requested for CCC(=Nc1cccc(C(F)(F)F)c1)c1c(O)n(C)c(=O)n(C)c1=O
Resp: 0.0
